Values compiled from patent US20250320312A1.

- target: Peptide 5: Biotin-…-[Tyr(PC)]-acid
- Sequence (peptide, as listed by the source): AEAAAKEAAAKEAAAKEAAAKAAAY
- assay.overview: scFv ELISA

binder	scale.unit	OD450
PcOxP_DB02_H06 (scFv, V domains shown, scFv in periplasmic extract) VH: EVQLLESGGGLVQPGGSLRLSCAASGFTFSDQYMEWVRQAPGKGLEWVAASRNKANDYTTEYADSVKGRFTISRDNSKNTLYLQMNSLRAEDTAVYYCARDYYGSSYWYFDVWGQGTLVTVSS VL: DIVMTQSPDSLAVSLGERATINCTSSESLYSSKNKVNYLAWYQQKPGQPPKLLIYGASNRYIGVPDRFSGSGSGTDFTLTISSLQAEDVAVYYCAQFYFYPLTFGGGTKVEIK	OD450	1.04
PcOxP_DB04_D01 (scFv, V domains shown, scFv in periplasmic extract) VH: EVQLLESGGGLVQPGGSLRLSCAASGFTFSDYYMEWVRQAPGKGLEWVAASRNKGNDYTTAYADSVKGRFTISRDNSKNTLYLQMNSLRAEDTAVYYCARDYYGSSYWYFDVWGQGTLVTVSS VL: DIVMTQSPDSLAVSLGERATINCTASESLYSSKHKVHYLAWYQQKPGQPPKLLIYGASQRYIGVPDRFSGSGSGTDFTLTISSLQAEDVAVYYCAQFYSYPLTFGGGTKVEIK	OD450	1.66
PcOxP_DB03_C03 (scFv, V domains shown, scFv in periplasmic extract) VH: EVQLLESGGGLVQPGGSLRLSCAASGFTFSDFYMEWVRQAPGKGLEWVAASRNKYNDYTTEYADSVKGRFTISRDNSKNTLYLQMNSLRAEDTAVYYCARDYYGSSYWYFDVWGQGTLVTVSS VL: DIQMTQSPSSLSASVGDRVTITCTASESLYSSKHKVHYLAWYQQKPGKAPKLLIYGASNRYIGVPSRFSGSGSGTDFTLTISSLQPEDFATYYCAQFYSYPLTFGGGTKVEIK	OD450	1.66
PcOxP_DB02_F12 (scFv, V domains shown, scFv in periplasmic extract) VH: EVQLLESGGGLVQPGGSLRLSCAASGFTFSDAYMEWVRQAPGKGLEWVAASRNKANDYTTEYADSVKGRFTISRDNSKNTLYLQMNSLRAEDTAVYYCARDYYGSSYWYFDVWGQGTLVTVSS VL: DIQMTQSPSSLSASVGDRVTITCEASESLYSSKHKVHYLAWYQQKPGKAPKLLIYGASNRYPGVPSRFSGSGSGTDFTLTISSLQPEDFATYYCAQFYEYPLTFGGGTKVEIK	OD450	0.81
PcOxP_DB03_H08 (scFv, V domains shown, scFv in periplasmic extract) VH: EVQLLESGGGLVQPGGSLRLSCAASGGTFSDFYMEWVRQAPGKGLEWVAASRNKANTYTTEYADSVKGRFTISRDNSKNTLYLQMNSLRAEDTAVYYCARDYYGSSYWYFDVWGQGTLVTVSS VL: DIQMTQSPSSLSASVGDRVTITCTASESLYSSKHKVHYLAWYQQKPGKAPKLLIYGSSNRYIGVPSRFSGSGSGTDFTLTISSLQPEDFATYYCAQFYQYPLTFGGGTKVEIK	OD450	1.18
PcOxP_DB04_A09 (scFv, V domains shown, scFv in periplasmic extract) VH: EVQLLESGGGLVQPGGSLRLSCAASGFTFSDYYMEWVRQAPGKGLEWVAASRNKWNDYTTEYADSVKGRFTISRDNSKNTLYLQMNSLRAEDTAVYYCARDYYGSSYWYFDVWGQGTLVTVSS VL: DIQMTQSPSSLSASVGDRVTITCTAEESLYSSKHKVHYLAWYQQKPGKAPKLLIYGASNLYSGVPSRFSGSGSGTDFTLTISSLQPEDFATYYCAQFYSYPLTFGGGTKVEIK	OD450	1.96
PcOxP_DB03_C08 (scFv, V domains shown, scFv in periplasmic extract) VH: EVQLLESGGGLVQPGGSLRLSCAASGSTFSDFYMEWVRQAPGKGLEWVAASRNKANDFTTEYADSVKGRFTISRDNSKNTLYLQMNSLRAEDTAVYYCARDYYGSSYWYFDVWGQGTLVTVSS VL: DIVMTQSPDSLAVSLGERATINCTASESLYSSKHKVHYLAWYQQKPGQPPKLLIYGASNRYSGVPDRFSGSGSGTDFTLTISSLQAEDVAVYYCAQFYHYPLTFGGGTKVEIK	OD450	0.9
PcOxP_DB02_A05 (scFv, V domains shown, scFv in periplasmic extract) VH: EVQLLESGGGLVQPGGSLRLSCAASGFTGSDFYMEWVRQAPGKGLEWVAASRNKWNDYTTEYADSVKGRFTISRDNSKNTLYLQMNSLRAEDTAVYYCARDYYGSSYWYFDVWGQGTLVTVSS VL: DIVMTQSPDSLAVSLGERATINCTASESLYSSKHKVHYLAWYQQKPGQPPKLLIYGAGNRYIGVPDRFSGSGSGTDFTLTISSLQAEDVAVYYCAQFYSYPLTFGGGTKVEIK	OD450	1.24
PcOxP_DB04_E06 (scFv, V domains shown, scFv in periplasmic extract) VH: EVQLLESGGGLVQPGGSLRLSCAASGFTGSDFYMEWVRQAPGKGLEWVAASRNKANDYTTEYADSVKGRFTISRDNSKNTLYLQMNSLRAEDTAVYYCARDYYGSPYWYFDVWGQGTLVTVSS VL: DIVMTQSPDSLAVSLGERATINCTASESLYSSKHKVHYLAWYQQKPGQPPKLLIYGASNRYIGVPDRFSGSGSGTDFTLTISSLQAEDVAVYYCAQFYSYPLTFGGGTKVEIK	OD450	1.59
PcOxP_DB01_D12 (scFv, V domains shown, scFv in periplasmic extract) VH: EVQLLESGGGLVQPGGSLRLSCAASGFTFSDYYMEWVRQAPGKGLEWVAASRNKYNDYTTEYADSVKGRFTISRDNSKNTLYLQMNSLRAEDTAVYYCARDYYGSSYWYFDVWGQGTLVTVSS VL: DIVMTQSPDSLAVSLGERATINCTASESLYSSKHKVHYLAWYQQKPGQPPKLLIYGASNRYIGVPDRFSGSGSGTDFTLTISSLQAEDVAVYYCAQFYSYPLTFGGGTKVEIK	OD450	1.48
